assay-text: Half life in human liver microsomes at 1 uM by LC/MS analysis
Assay type: ADME
assay-readout: half-life at 1 µM

## Input Sample CCN(CC)CCC/N=C(\c1cccnc1)N(CCCN(CC)CC)c1ccnc2cc(Cl)ccc12 — what was its half-life at 1 µM?
## Output > 60 min

## Input I'd like to know its half-life at 1 µM. The compound in question is CCN(CC)CCC/N=C(/N=c1\ccn(CCCN(CC)CC)c2cc(Cl)ccc12)c1cccnc1
## Output > 60 min

## Input I have this compound here, C/C(=N/c1ccnc2cc(Cl)ccc12)NCCCCN1CCCCC1 , and I need its recorded half-life at 1 µM.
## Output > 60 min

## Input I have this compound here, C/C(=N/c1ccnc2cc(Cl)ccc12)NC1CCN(Cc2ccccc2)CC1 , and I need its recorded half-life at 1 µM.
## Output > 60 min

## Input What measured half-life at 1 µM goes with CN(C)CCC/N=C(\c1ccccc1)N(CCCN(C)C)c1ccnc2cc(Cl)ccc12 ?
## Output > 60 min

## Input # get_value(readout='half-life at 1 µM', item= CCN(CC)CCCCN/C(C)=N\c1ccnc2cc(Cl)ccc12 )
## Output > 60 min

## Input Endpoint output: half-life at 1 µM of CCN(CC)CCN/C(=N\c1ccnc2cc(Cl)ccc12)C(C)C . Value?
## Output > 60 min

## Input Reported half-life at 1 µM, compound CCN(CC)CCCN/C(=N\c1ccnc2cc(Cl)ccc12)C(C)C : ____
## Output > 60 min

## Input Dear colleague, I am looking for the recorded half-life at 1 µM of the following compound: CN(C)CCCN/C(=N\c1ccnc2cc(Cl)ccc12)c1ccccc1
## Output > 60 min

## Input Given the entry CCN(CC)CCC/N=C(\C)N(CCCN(CC)CC)c1c2ccc(Cl)cc2nc2ccc(OC)nc12 , report its measured half-life at 1 µM.
## Output > 60 min

## Input Could you share which half-life at 1 µM value was measured for Clc1ccc2c(N(CCCN3CCCCC3)/C(=N/CCCN3CCCCC3)c3ccccc3)ccnc2c1 ?
## Output 31 min

## Input What half-life at 1 µM value was documented for this compound, COc1ccc2nc3cc(Cl)ccc3c(N/C(=N/CCCN(C)C)c3ccc(Cl)cc3)c2n1 ?
## Output 32 min

## Input Any idea what its half-life at 1 µM is? The compound is CCN(CC)CCCN/C(=N\c1ccnc2cc(Cl)ccc12)c1ccccc1
## Output 21 min

## Input Which half-life at 1 µM value is on record for CCN(CC)CCC/N=C(/Nc1c2ccc(Cl)cc2nc2ccc(OC)nc12)c1cccnc1 ?
## Output 32 min

## Input // half-life at 1 µM lookup, key: CCN(CC)CCCN(CCCN(CC)CC)/C(=N\c1c2ccc(Cl)cc2nc2ccc(OC)nc12)C(C)C
## Output > 60 min

## Input Please report the recorded half-life at 1 µM for CCN(CC)CCCCN/C(=N\c1ccnc2cc(Cl)ccc12)C(C)C .
## Output 55 min

## Input Which half-life at 1 µM is reported for this compound? C/C(=N/c1ccnc2cc(Cl)ccc12)NCCC1CCN(c2ccncc2)CC1
## Output > 60 min

## Input Reported half-life at 1 µM, compound C/C(=N/c1ccnc2cc(Cl)ccc12)NCCCN1CCOCC1 : ____
## Output 25 min

## Input Consider the compound shown here: CN(C)CCCN/C(=N\c1ccnc2cc(Cl)ccc12)c1ccc(Cl)cc1 What is its recorded half-life at 1 µM?
## Output 48 min

## Input Could you share which half-life at 1 µM value was measured for C/C(=N/c1ccnc2cc(Cl)ccc12)NCCCN1CCCCC1 ?
## Output > 60 min
